assay-protocol: Cytotoxicity MTS assay in HFF-1 fibroblasts
Assay type: cell-based
measurement-parameters: human HFF-1 fibroblasts
Reported IC50 at 72 h values are given for each entry in this list.
value-type: IC50 at 72 h

- NC(=O)Cn1c(CCNC(=O)COc2ccccc2)nc2ccccc21: > 100 µM
- O=C(Cn1ccnc1[N+](=O)[O-])NCc1ccccc1 [BZ, benznidazole, reference compound]: > 100 µM
- O=C(COc1ccccc1)NCCc1nc2ccccc2[nH]1: > 100 µM

* * *

assay-protocol: In vivo pharmacokinetics in male CD1 mice
Parameters: species or system mouse
measurement-parameters: mouse, plasma; Table 6; IV 0.5 mg/kg, male CD1 mice; read-out: V SS (L/kg) IV
Parameter log10 Vd: see the listing below.
value-type: log10 Vd (log10 of the value in L/kg)

* Cc1ccccc1OCC(=O)NCCc1nc2ccccc2[nH]1 | 0.64
* O=C(COc1ccc2ccccc2c1Br)NCCc1nc2ccccc2[nH]1 | 0.28
* O=C(COc1ccccc1Br)NCCc1nc2ccccc2[nH]1 | 0.26
* N#Cc1ccccc1OCC(=O)NCCc1nc2ccccc2[nH]1 | 0.28
* O=C(COc1ccc(Br)cc1)NCCc1nc2ccccc2[nH]1 | -0.22
* Cc1ccccc1OCC(=O)NCCc1nc2ccccc2o1 | 0.38
* O=C(COc1ccccc1[N+](=O)[O-])NCCc1nc2ccccc2[nH]1 | 0.40
* O=C(CCc1ccccc1Br)NCCc1nc2ccccc2[nH]1 | 0.86
* C=CCCn1c(CCNC(=O)COc2ccccc2Cl)nc2ccccc21 | 0.52
* O=C(COc1ccc2ccccc2c1)NCCc1nc2ccccc2[nH]1 | 0.30
